Form field: SK-Br-3 pAkt (S473) % inhibition (one value per entry).
# EXPERIMENTAL SYSTEM: Human HER3, endogenous, on human cancer cell lines (SK-Br-3, MCF7, BT-474) (human, UniProt P21860 20-1342)
# Sequence (P21860 20-1342): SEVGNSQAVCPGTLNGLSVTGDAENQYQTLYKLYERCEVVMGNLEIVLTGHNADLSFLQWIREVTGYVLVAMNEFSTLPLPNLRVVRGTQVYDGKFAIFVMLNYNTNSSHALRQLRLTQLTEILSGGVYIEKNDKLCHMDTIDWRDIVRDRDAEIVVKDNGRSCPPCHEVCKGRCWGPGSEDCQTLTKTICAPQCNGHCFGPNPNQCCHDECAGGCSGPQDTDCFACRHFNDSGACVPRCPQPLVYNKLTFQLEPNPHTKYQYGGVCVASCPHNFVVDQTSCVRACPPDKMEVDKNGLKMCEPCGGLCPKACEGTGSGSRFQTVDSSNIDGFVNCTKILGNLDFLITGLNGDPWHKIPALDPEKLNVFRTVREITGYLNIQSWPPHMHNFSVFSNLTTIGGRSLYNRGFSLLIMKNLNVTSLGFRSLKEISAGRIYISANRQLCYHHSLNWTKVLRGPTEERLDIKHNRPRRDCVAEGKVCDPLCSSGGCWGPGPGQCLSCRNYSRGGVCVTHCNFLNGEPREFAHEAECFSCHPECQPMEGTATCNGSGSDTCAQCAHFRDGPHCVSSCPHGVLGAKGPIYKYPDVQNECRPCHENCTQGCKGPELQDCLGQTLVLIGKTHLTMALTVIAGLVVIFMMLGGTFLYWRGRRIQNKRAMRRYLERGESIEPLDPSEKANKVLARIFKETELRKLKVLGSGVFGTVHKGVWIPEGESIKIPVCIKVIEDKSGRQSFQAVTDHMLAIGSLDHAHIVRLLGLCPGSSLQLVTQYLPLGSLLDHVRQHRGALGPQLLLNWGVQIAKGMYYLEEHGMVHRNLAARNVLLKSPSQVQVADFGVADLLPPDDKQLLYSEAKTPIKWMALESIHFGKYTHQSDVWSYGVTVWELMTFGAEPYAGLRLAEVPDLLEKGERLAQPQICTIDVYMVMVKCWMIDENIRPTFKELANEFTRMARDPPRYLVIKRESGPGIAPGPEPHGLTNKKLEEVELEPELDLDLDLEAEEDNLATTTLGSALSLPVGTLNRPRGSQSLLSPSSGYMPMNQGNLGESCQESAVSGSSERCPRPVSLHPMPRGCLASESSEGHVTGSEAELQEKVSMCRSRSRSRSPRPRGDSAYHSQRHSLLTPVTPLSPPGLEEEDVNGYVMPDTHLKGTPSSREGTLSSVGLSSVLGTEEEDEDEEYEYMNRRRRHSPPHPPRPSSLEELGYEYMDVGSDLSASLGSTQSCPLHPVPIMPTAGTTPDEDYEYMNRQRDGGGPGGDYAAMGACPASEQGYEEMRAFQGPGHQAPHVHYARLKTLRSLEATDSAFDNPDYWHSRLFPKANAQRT
# TEST SUMMARY: cell-based or functional assay
Write the answer as a number in %, unit excluded.

MOR13868 (antibody, human IgG1, kappa, V domains shown, tested as IgG) VH: QVQLVQSGAEVKKPGESLKISCKGSGYSFSNYWIAWVRQMPGKGLEWMGIIYPGLSDTIYSPSFQGQVTISADKSISTAYLQWSSLKASDTAMYYCARVHIIQPPSAWSYNAMDVWGQGTLVTVSS VL: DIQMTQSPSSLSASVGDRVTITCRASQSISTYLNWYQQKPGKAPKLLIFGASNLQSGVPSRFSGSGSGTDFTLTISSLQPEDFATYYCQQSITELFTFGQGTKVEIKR
92
MOR13766 (antibody, human IgG1, kappa, V domains shown, tested as IgG) VH: QVQLVQSGAEVKKPGESLKISCKGSGYSFTTTWVAWVRQMPGKGLEWMGIIYPGSSDTIYSPSFQGQVTISADKSISTAYLQWSSLKASDTAMYYCARVHIIQPPSAWSYNAMDVWGQGTLVTVSS VL: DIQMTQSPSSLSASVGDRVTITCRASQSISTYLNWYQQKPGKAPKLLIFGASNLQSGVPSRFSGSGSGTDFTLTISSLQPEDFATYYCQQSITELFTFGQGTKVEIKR
91

Complete the entry with SK-Br-3 pAkt (S473) % inhibition for MOR12925 (antibody, human IgG1, kappa, V domains shown, tested as IgG) VH: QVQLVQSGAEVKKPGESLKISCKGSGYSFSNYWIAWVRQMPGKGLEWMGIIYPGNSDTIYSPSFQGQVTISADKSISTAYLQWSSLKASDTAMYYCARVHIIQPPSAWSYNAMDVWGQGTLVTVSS VL: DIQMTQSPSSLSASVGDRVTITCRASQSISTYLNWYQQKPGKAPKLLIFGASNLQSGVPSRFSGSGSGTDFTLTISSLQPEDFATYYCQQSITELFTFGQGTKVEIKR
88

Origin of values: patent US20130273029A1
